assay protocol: AUC in Sprague-Dawley rat at 2 mg/kg, po by LC/MS/MS analysis
Format: ADME, organism-based
Set-up: dose 2 mg/kg, route oral
experimental setup: plasma
// values below are reported AUC

| compound structure string | AUC |
| --- | --- |
| C[C@@H](O)c1nc2cnc3[nH]ccc3c2n1[C@H]1CCCOC1 | 10.7 µM·h |
| C[C@@H](O)c1nc2cnc3[nH]ccc3c2n1[C@H]1CC[C@@H](NCC(F)(F)F)C1 | 1 µM·h |
| C[C@@H](O)c1nc2cnc3[nH]ccc3c2n1[C@H]1CC[C@H](NCC(F)(F)F)CC1 | 1.4 µM·h |
| C[C@@H](O)c1nc2cnc3[nH]ccc3c2n1[C@H]1CC[C@H](C#N)CC1 | 0.94 µM·h |
| C[C@@H](O)c1nc2cnc3[nH]ccc3c2n1[C@H]1CC[C@H](CCC#N)CC1 | 0.42 µM·h |
| C[C@@H](O)c1nc2cnc3[nH]ccc3c2n1[C@H]1CC[C@H](CC#N)CC1 | 1.3 µM·h |

---

Voltage-gated inwardly rectifying potassium channel KCNH2 (Homo sapiens, UniProt Q12809) IC50 data
Sequence (Q12809 whole entry): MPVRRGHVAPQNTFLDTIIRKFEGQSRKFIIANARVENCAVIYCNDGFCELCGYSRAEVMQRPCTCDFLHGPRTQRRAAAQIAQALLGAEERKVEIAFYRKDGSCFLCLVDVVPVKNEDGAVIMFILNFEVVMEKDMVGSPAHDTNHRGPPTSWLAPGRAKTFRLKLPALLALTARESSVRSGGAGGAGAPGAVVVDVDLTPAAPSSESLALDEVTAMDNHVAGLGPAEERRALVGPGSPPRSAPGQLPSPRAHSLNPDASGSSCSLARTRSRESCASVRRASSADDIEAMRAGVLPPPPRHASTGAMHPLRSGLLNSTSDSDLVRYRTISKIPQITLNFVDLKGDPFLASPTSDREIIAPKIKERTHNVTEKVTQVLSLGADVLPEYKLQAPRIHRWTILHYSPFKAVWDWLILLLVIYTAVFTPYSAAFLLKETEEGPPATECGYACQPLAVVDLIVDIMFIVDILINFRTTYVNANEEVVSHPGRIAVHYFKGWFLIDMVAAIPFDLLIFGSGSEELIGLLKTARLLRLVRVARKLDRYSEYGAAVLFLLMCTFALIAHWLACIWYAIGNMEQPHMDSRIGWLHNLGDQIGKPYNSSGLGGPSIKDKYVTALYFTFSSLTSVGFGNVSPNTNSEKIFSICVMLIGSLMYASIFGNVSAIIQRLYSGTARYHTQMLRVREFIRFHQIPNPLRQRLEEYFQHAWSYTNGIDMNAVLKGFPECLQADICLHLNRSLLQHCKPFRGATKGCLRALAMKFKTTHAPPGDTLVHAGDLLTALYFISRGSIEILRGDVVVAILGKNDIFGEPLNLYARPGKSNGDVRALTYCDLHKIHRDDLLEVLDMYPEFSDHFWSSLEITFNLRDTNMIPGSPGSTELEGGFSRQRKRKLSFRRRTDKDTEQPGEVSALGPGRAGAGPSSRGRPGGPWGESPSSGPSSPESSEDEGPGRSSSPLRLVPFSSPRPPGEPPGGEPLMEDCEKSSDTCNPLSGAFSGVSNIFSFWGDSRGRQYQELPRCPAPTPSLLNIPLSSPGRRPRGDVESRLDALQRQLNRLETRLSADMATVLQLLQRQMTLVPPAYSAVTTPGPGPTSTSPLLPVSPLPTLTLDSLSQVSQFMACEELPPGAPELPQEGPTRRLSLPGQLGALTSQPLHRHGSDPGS

| compound structure string | system under test | IC50 |
| --- | --- | --- |
| C[C@@H](O)c1nc2cnc3[nH]ccc3c2n1[C@H]1CCCOC1 | Voltage-gated inwardly rectifying potassium channel KCNH2 (Homo sapiens, UniProt Q12809) | > 100 µM |
| C[C@@H](O)c1nc2cnc3[nH]ccc3c2n1[C@H]1CC[C@H](C#N)CC1 | Voltage-gated inwardly rectifying potassium channel KCNH2 (Homo sapiens, UniProt Q12809) | > 100 µM |
| C[C@@H](O)c1nc2cnc3[nH]ccc3c2n1[C@H]1CC[C@H](NCC(F)(F)F)CC1 | Voltage-gated inwardly rectifying potassium channel KCNH2 (Homo sapiens, UniProt Q12809) | > 100 µM |
| C[C@@H](O)c1nc2cnc3[nH]ccc3c2n1[C@H]1CC[C@H](CCC#N)CC1 | Voltage-gated inwardly rectifying potassium channel KCNH2 (Homo sapiens, UniProt Q12809) | 20 µM |

---

UniProtKB P23458 pKi data
Sequence (P23458 whole entry): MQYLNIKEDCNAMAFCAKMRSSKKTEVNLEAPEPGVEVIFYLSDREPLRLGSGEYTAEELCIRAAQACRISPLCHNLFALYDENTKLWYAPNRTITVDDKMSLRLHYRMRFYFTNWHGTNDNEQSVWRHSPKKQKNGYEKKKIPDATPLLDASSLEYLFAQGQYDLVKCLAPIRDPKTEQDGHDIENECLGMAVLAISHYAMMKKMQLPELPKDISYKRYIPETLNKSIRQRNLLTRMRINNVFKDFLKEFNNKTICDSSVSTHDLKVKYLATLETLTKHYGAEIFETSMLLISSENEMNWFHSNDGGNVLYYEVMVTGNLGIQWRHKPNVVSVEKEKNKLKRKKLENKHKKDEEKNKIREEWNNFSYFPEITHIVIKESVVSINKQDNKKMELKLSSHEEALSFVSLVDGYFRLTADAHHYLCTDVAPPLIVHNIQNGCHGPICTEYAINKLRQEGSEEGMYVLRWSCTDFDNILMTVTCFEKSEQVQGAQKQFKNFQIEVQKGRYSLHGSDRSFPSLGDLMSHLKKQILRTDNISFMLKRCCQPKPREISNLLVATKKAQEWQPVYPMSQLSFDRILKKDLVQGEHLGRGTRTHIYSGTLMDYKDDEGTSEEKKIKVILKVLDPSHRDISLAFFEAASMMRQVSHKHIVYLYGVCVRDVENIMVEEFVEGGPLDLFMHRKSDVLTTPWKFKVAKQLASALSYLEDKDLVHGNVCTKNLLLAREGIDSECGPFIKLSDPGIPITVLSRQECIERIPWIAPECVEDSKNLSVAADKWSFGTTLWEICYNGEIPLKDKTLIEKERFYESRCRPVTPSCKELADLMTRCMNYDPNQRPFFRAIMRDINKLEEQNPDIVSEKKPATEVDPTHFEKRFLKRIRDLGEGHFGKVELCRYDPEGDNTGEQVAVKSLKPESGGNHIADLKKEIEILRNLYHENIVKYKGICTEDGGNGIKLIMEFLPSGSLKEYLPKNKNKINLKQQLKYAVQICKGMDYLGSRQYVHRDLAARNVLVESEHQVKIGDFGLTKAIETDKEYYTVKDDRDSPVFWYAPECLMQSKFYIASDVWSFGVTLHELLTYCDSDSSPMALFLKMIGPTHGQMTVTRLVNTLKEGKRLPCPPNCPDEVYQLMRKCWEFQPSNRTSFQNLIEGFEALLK
pKi: −log10 of the molar value.
readout kind: pKi

| compound | numeric readout |
| --- | --- |
| C[C@@H](O)c1nc2cnc3[nH]ccc3c2n1C1CCN(CCC#N)CC1 | 8.47 |
| C[C@@H](O)c1nc2cnc3[nH]ccc3c2n1[C@H]1CC[C@H](C#N)CC1 | 8.72 |
| C[C@@H](O)c1nc2cnc3[nH]ccc3c2n1[C@H]1CC[C@@H](NCC(F)(F)F)CC1 | 7.28 |
| CC(C)(O)c1nc2cnc3[nH]ccc3c2n1C1CCCCC1 | 7.89 |
| C[C@@H](O)c1nc2cnc3[nH]ccc3c2n1[C@H]1CC[C@H](NCC(F)(F)F)C1 | 8.92 |
| OCCc1nc2cnc3[nH]ccc3c2n1C1CCCCC1 | 8.46 |
| C[C@@H](O)c1nc2cnc3[nH]ccc3c2n1[C@H]1CC[C@@H](NCC(F)(F)F)C1 | 8.70 |
| C[C@@H](O)c1nc2cnc3[nH]ccc3c2n1[C@H]1CC[C@@H](C#N)CC1 | 9.05 |
| CCN1CCC(n2c([C@@H](C)O)nc3cnc4[nH]ccc4c32)C(F)(F)C1 (stereo not given in full) | 8.70 |
| C[C@@H](O)c1nc2cnc3[nH]ccc3c2n1[C@@H]1CCCOC1 | 7.17 |

src = ChEMBL document CHEMBL2385026
